Molecular target: 5-Lipoxygenase (Homo sapiens, UniProt P09917)
Construct: from tissue; host or cells: whole blood of male human donors (endogenous enzyme of the leukocytes)
Sequence (P09917 whole entry): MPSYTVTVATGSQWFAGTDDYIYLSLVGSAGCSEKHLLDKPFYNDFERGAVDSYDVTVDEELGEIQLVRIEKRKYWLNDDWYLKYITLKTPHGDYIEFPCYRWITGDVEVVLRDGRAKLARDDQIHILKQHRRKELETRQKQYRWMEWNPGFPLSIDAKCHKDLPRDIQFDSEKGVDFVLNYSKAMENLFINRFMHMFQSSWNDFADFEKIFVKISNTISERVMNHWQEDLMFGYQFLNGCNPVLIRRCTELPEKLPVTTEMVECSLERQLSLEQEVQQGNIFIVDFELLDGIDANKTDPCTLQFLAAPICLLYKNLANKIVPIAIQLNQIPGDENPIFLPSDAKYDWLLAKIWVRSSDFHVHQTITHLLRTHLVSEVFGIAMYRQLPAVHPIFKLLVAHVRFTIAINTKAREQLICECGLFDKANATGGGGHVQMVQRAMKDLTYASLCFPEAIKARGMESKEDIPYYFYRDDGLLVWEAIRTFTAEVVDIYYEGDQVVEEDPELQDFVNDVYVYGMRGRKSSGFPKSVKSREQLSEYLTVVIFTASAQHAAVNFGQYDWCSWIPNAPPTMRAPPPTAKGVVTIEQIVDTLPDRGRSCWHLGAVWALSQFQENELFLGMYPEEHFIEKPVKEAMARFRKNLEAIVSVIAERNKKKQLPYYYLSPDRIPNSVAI
Assay: Inhibition of 5-Lipoxygenase in Human Whole Blood (LTB4, calcium ionophore A23187)
Type: cell-based
Details: 1 μM
measurement_name: inhibition at 1 µM (%)

>>> endpoint_result("Cc1oc(-c2ccccc2)nc1COc1ccc(CN(O)C(N)=O)cc1Cl [Example 2]")
31
>>> endpoint_result("NC(=O)N(O)Cc1ccc(OCc2coc(-c3ccccc3)n2)cc1 [Example 9]")
58
>>> endpoint_result("NC(=O)N(O)Cc1ccc(OCc2csc(-c3ccc(Cl)cc3)n2)cc1 [Example 14]")
71
>>> endpoint_result("O=C(Nc1ccc(F)cc1)N(O)Cc1ccc(OCc2csc(-c3ccc(C(F)(F)F)cc3)n2)cc1 [Example 13]")
38

Entry source: patent US5504097A
